Molecular target: isolated recombinant JAK2 kinase domain (Homo sapiens (Human), UniProt O60674)
Sequence (O60674 849-1124): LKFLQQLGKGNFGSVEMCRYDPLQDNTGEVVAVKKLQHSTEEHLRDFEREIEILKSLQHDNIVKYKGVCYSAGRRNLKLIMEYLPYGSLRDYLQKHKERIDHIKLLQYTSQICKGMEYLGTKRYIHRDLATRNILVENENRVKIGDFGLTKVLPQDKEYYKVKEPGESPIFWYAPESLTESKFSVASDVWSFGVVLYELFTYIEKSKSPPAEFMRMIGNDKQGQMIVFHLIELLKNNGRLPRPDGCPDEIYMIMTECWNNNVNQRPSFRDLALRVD
Assay: JAK2 enzyme assay (Caliper LabChip, Ki)
pKi: −log10 of the molar value.
Reported Endpoint: pKi

>  <Compound>
COC(=O)Nc1nn(C2(CC#N)CCN(Cc3ccc(-c4ccccc4)c(O)c3)CC2F)cc1C(N)=O (stereo not drawn)

>  <Experimental System>
isolated recombinant JAK2 kinase domain (Homo sapiens (Human), UniProt O60674)

>  <Reported Endpoint>
pKi

>  <Inequality Sign>
=

>  <Quantitative Result>
9.82

$$$$
>  <Compound>
N#CCC1(n2cc(C(N)=O)c(NC(=O)C3CC3)n2)CCN(CCc2ccccc2)CC1

>  <Experimental System>
isolated recombinant JAK2 kinase domain (Homo sapiens (Human), UniProt O60674)

>  <Reported Endpoint>
pKi

>  <Inequality Sign>
<

>  <Quantitative Result>
6.50

$$$$
>  <Compound>
N#CC[C@]1(n2cc(C(N)=O)c(NC(=O)C3CC3)n2)CC[C@@H](N2CC(OCc3ccccc3)(C(F)(F)F)C2)CC1

>  <Experimental System>
isolated recombinant JAK2 kinase domain (Homo sapiens (Human), UniProt O60674)

>  <Reported Endpoint>
pKi

>  <Inequality Sign>
=

>  <Quantitative Result>
7.81

$$$$
>  <Compound>
COC(=O)Nc1nn(C2(CC#N)CCN(Cc3ccc(-c4ccc(C)o4)c(O)c3)CC2F)cc1C(N)=O (stereo not drawn)

>  <Experimental System>
isolated recombinant JAK2 kinase domain (Homo sapiens (Human), UniProt O60674)

>  <Reported Endpoint>
pKi

>  <Inequality Sign>
=

>  <Quantitative Result>
9.37

$$$$
>  <Compound>
COC(=O)Nc1nn(C2(CC#N)CCN(Cc3ccc(-c4ccccc4)nc3F)CC2)cc1C(N)=O

>  <Experimental System>
isolated recombinant JAK2 kinase domain (Homo sapiens (Human), UniProt O60674)

>  <Reported Endpoint>
pKi

>  <Inequality Sign>
=

>  <Quantitative Result>
8.42

$$$$
>  <Compound>
C#Cc1ccc(NC2CCC(CC#N)(n3cc(C(N)=O)c(NC(=O)C4CC4)n3)CC2)cc1 (stereo not drawn)

>  <Experimental System>
isolated recombinant JAK2 kinase domain (Homo sapiens (Human), UniProt O60674)

>  <Reported Endpoint>
pKi

>  <Inequality Sign>
=

>  <Quantitative Result>
7.85

$$$$
>  <Compound>
CN(C)C(=O)c1ccccc1-c1ccc(CN2CCC(CC#N)(n3cc(C(N)=O)c(NC(=O)C4CC4)n3)CC2)cc1

>  <Experimental System>
isolated recombinant JAK2 kinase domain (Homo sapiens (Human), UniProt O60674)

>  <Reported Endpoint>
pKi

>  <Inequality Sign>
=

>  <Quantitative Result>
7.20

$$$$
>  <Compound>
N#CCC1(n2cc(C(N)=O)c(NC(=O)C3CC3)n2)CCN(Cc2ccc(I)cc2)CC1

>  <Experimental System>
isolated recombinant JAK2 kinase domain (Homo sapiens (Human), UniProt O60674)

>  <Reported Endpoint>
pKi

>  <Inequality Sign>
=

>  <Quantitative Result>
7.50

$$$$
>  <Compound>
COC(=O)Nc1nn(C2(CC#N)CCN(Cc3ccc(-n4nccn4)c(O)c3)CC2F)cc1C(N)=O (stereo not drawn)

>  <Experimental System>
isolated recombinant JAK2 kinase domain (Homo sapiens (Human), UniProt O60674)

>  <Reported Endpoint>
pKi

>  <Inequality Sign>
=

>  <Quantitative Result>
9.37

$$$$
>  <Compound>
CCOC(=O)Nc1nn(C2(CC#N)CCN(Cc3ccc(-c4ccccc4)c(O)c3)CC2)cc1C(N)=O

>  <Experimental System>
isolated recombinant JAK2 kinase domain (Homo sapiens (Human), UniProt O60674)

>  <Reported Endpoint>
pKi

>  <Inequality Sign>
=

>  <Quantitative Result>
8.51

$$$$
>  <Compound>
N#CC[C@]1(n2cc(C(N)=O)c(NC(=O)C3CC3)n2)CC[C@H](NCc2ccc(Cl)cc2)CC1

>  <Experimental System>
isolated recombinant JAK2 kinase domain (Homo sapiens (Human), UniProt O60674)

>  <Reported Endpoint>
pKi

>  <Inequality Sign>
<

>  <Quantitative Result>
6.50

$$$$
>  <Compound>
N#CCC1(n2cc(C(N)=O)c(NC(=O)C3CC3)n2)CCN(Cc2ccc3c(c2)[nH]c2ccccc23)CC1

>  <Experimental System>
isolated recombinant JAK2 kinase domain (Homo sapiens (Human), UniProt O60674)

>  <Reported Endpoint>
pKi

>  <Inequality Sign>
=

>  <Quantitative Result>
8.20

$$$$
>  <Compound>
C=C(C)c1ccc(CN2CCC(CC#N)(n3cc(C(N)=O)c(NC(=O)C4CC4)n3)C(F)C2)cc1 (stereo not drawn)

>  <Experimental System>
isolated recombinant JAK2 kinase domain (Homo sapiens (Human), UniProt O60674)

>  <Reported Endpoint>
pKi

>  <Inequality Sign>
=

>  <Quantitative Result>
8.74

$$$$
>  <Compound>
COC(=O)Nc1nn(C2(CC#N)CCN(Cc3cc(O)c(-c4ccccc4)cc3F)CC2)cc1C(N)=O

>  <Experimental System>
isolated recombinant JAK2 kinase domain (Homo sapiens (Human), UniProt O60674)

>  <Reported Endpoint>
pKi

>  <Inequality Sign>
=

>  <Quantitative Result>
9.52

$$$$
>  <Compound>
N#CCC1(n2cc(C(N)=O)c(NC(=O)C3CC3)n2)CCN(Cc2ccc(-c3ccc(C(F)(F)F)cc3)nc2)CC1

>  <Experimental System>
isolated recombinant JAK2 kinase domain (Homo sapiens (Human), UniProt O60674)

>  <Reported Endpoint>
pKi

>  <Inequality Sign>
=

>  <Quantitative Result>
7.10

$$$$

----------
Reported log10 of Ki values follow for various compounds
Molecular target: isolated recombinant JAK1 kinase domain (Homo sapiens (Human))
Sequence (P23458 875-1153): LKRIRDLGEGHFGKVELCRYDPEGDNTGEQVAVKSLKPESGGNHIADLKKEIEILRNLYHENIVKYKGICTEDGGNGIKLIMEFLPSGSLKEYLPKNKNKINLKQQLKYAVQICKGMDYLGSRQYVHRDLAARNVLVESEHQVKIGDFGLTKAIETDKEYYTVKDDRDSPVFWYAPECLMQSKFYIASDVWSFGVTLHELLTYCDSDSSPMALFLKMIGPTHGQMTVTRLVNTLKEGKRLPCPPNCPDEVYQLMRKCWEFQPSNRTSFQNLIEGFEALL
Assay: JAK1 enzyme assay (Caliper LabChip, Ki)
Format: biochemical
Conditions: read-out: JAK1 Ki
Reported Endpoint: log10 of Ki (log10 of the value in nM)

>  <Compound>
N#CCC1(n2cc(C(N)=O)c(NC(=O)C3CC3)n2)CCN(C2CCN(C(=O)c3ccnc(C(F)(F)F)c3F)CC2)CC1

>  <log10 of Ki>
1.87

$$$$
>  <Compound>
N#CCC1(n2cc(C(N)=O)c(NC(=O)C3CC3)n2)CCC(Oc2ccc(-c3ccccc3)cc2)CC1 (single isomer, unassigned) [Example 210]

>  <log10 of Ki>
0.32

$$$$
>  <Compound>
N#CCC1(n2cc(C(N)=O)c(NC(=O)C3CC3)n2)CCN(Cc2ccc(N3CCCC3)cc2)CC1

>  <log10 of Ki>
1.93

$$$$
>  <Compound>
COC(=O)Nc1nn(C2(CC#N)CCN(Cc3ccc(C4=CCCC4)nc3F)CC2F)cc1C(N)=O (centres unmarked)

>  <log10 of Ki>
-0.17

$$$$
>  <Compound>
N#CCC1(n2cc(C(N)=O)c(NC(=O)C3CC3)n2)CCC(Nc2ccc(-n3nccn3)cc2)CC1 (centres unmarked)

>  <log10 of Ki>
-0.55

$$$$
>  <Compound>
COC(=O)Nc1nn(C2(CC#N)CCN(Cc3ccc(-c4ccc(C)o4)cc3)CC2F)cc1C(N)=O (centres unmarked)

>  <log10 of Ki>
-0.46

$$$$
>  <Compound>
N#CCC1(n2cc(C(N)=O)c(NC(=O)C3CC3)n2)CCC(Nc2ccc(C3=CCCC3)cc2)CC1 (centres unmarked)

>  <log10 of Ki>
0.04

$$$$
>  <Compound>
COc1ccc(CN2CCC(CC#N)(n3cc(C(N)=O)c(NC(=O)C4CC4)n3)CC2)cc1

>  <log10 of Ki>
1.41

$$$$
>  <Compound>
C#Cc1ccc(CN2CCC(CC#N)(n3cc(C(N)=O)c(NC(=O)C4CC4)n3)C(F)C2)cc1 (centres unmarked)

>  <log10 of Ki>
-0.60

$$$$
>  <Compound>
COC(=O)Nc1nn(C2(CC#N)CCN(Cc3ccc(-c4ccco4)c(O)c3)CC2F)cc1C(N)=O (centres unmarked)

>  <log10 of Ki>
-0.80

$$$$
>  <Compound>
COC(=O)Nc1nn(C2(CC#N)CCN(Cc3cc(O)c(-c4ccc(C)o4)cc3F)CC2F)cc1C(N)=O (centres unmarked)

>  <log10 of Ki>
-0.82

$$$$
>  <Compound>
N#CCC1(n2cc(C(N)=O)c(NC(=O)C3CC3)n2)CCN(Cc2ccc(-c3ccccc3)cc2)CC1

>  <log10 of Ki>
-0.10

$$$$
>  <Compound>
CC(C)OC1(C(F)(F)F)CN([C@H]2CC[C@](CC#N)(n3cc(C(N)=O)c(NC(=O)C4CC4)n3)CC2)C1

>  <log10 of Ki>
2.67

$$$$
>  <Compound>
N#CCC1(n2cc(C(N)=O)c(NC(=O)C3CC3)n2)CCN(Cc2ccc(-c3ccccc3)nc2F)CC1F (centres unmarked)

>  <log10 of Ki>
-0.62

$$$$
>  <Compound>
N#CCC1(n2cc(C(N)=O)c(NC(=O)C3CC3)n2)CCC(Nc2ccc(-c3ccccc3)cc2)CC1 (centres unmarked)

>  <log10 of Ki>
-0.64

$$$$
>  <Compound>
COC(=O)Nc1nn(C2(CC#N)CCN(Cc3ccc(C4=CCCCC4)nc3F)CC2F)cc1C(N)=O (centres unmarked)

>  <log10 of Ki>
-0.10

$$$$
>  <Compound>
CCn1ccc(-c2ccc(CN3CCC(CC#N)(n4cc(C(N)=O)c(NC(=O)C5CC5)n4)C(F)C3)cc2)n1 (centres unmarked)

>  <log10 of Ki>
-0.18

$$$$
>  <Compound>
N#CCC1(n2cc(C(N)=O)c(NC(=O)C3CC3)n2)CCN(Cc2ccc(-c3ccccc3F)cc2)CC1

>  <log10 of Ki>
0.23

$$$$
>  <Compound>
C#Cc1ccc(CN2CCC(CC#N)(n3cc(C(N)=O)c(NC(=O)OC)n3)C(F)C2)cc1 (centres unmarked)

>  <log10 of Ki>
-0.39

$$$$
>  <Compound>
N#CC[C@]1(n2cc(C(N)=O)c(NC(=O)C3CC3)n2)CCN(Cc2ccc(-c3ccccc3)cc2)C[C@@H]1F (single isomer, unassigned)

>  <log10 of Ki>
0.11

$$$$
>  <Compound>
COC(=O)Nc1nn(C2(CC#N)CCN(Cc3ccc(-n4ncc(C)n4)cc3)CC2F)cc1C(N)=O (centres unmarked)

>  <log10 of Ki>
-0.07

$$$$
>  <Compound>
N#CCC1(n2cc(C(N)=O)c(NC(=O)C3CC3)n2)CCN(Cc2ccc(-c3cccc(Cl)c3)cc2)CC1

>  <log10 of Ki>
0.04

$$$$
>  <Compound>
N#CCC1(n2cc(C(N)=O)c(NC(=O)C3CC3)n2)CCN(Cc2ccc(-c3csc(Cl)c3)c(F)c2)CC1

>  <log10 of Ki>
-0.10

$$$$
>  <Compound>
CS(=O)(=O)Nc1cc(CN2CCC(CC#N)(n3cc(C(N)=O)c(NC(=O)C4CC4)n3)CC2)ccc1F

>  <log10 of Ki>
0.48

$$$$
>  <Compound>
COc1cccc(CN2CCC(CC#N)(n3cc(C(N)=O)c(NC(=O)C4CC4)n3)CC2)c1

>  <log10 of Ki>
0.89

$$$$
>  <Compound>
N#CCC1(n2cc(C(N)=O)c(NC(=O)C3CC3)n2)CCN(Cc2ccc(-c3ccn(CC(F)(F)F)n3)c(F)c2)CC1

>  <log10 of Ki>
0.04

$$$$
>  <Compound>
N#CCC1(n2cc(C(N)=O)c(NC(=O)C3CC34CC4)n2)CCN(CC(F)(F)F)CC1 (centres unmarked)

>  <log10 of Ki>
1.91

$$$$
>  <Compound>
N#CCC1(n2cc(C(N)=O)c(NC(=O)C3CC3)n2)CCN(Cc2ccc(-c3ccccc3)nc2F)CC1

>  <log10 of Ki>
-0.22

$$$$
>  <Compound>
N#CC[C@]1(n2cc(C(N)=O)c(NC(=O)C3CC3)n2)CC[C@@H](N2CC(OCc3ccccc3)(C(F)(F)F)C2)CC1

>  <log10 of Ki>
0.40

$$$$
